target: EphB3 (receptor of Table 1); assay: EphB receptor specificity panel (% binding)
True if % Binding is below 20%. False if not; exact matches included in False.

Sample answers from the record:
{"binder": "EWYMKFPPEHYF (Panned on EphB4) [EWYMKFPPEHYF peptide (SEQ ID NO:19)]", "group-label": "False"}
{"binder": "SHKFPGPPSWMS (Panned on EphB1) [SHKFPGPPSWMS peptide (SEQ ID NO:4)]", "group-label": "True"}
{"binder": "NHWPTQPYAIPI (Panned on EphB2) [NHWPTQPYAIPI peptide (SEQ ID NO:15)]", "group-label": "False"}
{"binder": "THWCHLLNCAAL (Panned on EphB2) [THWCHLLNCAAL peptide (SEQ ID NO:6)]", "group-label": "False"}
{"binder": "TNYLFSPNGPIA (Panned on EphB4; non-biotinylated form) [TNYLFSPNGPIA peptide (SEQ ID NO:24)]", "group-label": "True"}

Q: For this binder, is % Binding lower than 20%? IHWPVAPYSYLD (Panned on EphB2) [IHWPVAPYSYLD peptide (SEQ ID NO:11)]
A: True

Q: Okay, and THWKFQPWALVT (Panned on EphB1) [THWKFQPWALVT peptide (SEQ ID NO:5)] ?
A: True

Q: Another binder to check: NPVIGPIQRAWT (Panned on EphB4) [NPVIGPIQRAWT peptide (SEQ ID NO:27)]
A: True
